- Test: 1-Octanol/PBS buffer distribution coefficient, log D of the compound at pH 7.4 by HPLC/LC-MS analysis
- Format: physicochemical
Endpoint Name: logD
Enter a number only.

| Structure As Smiles | Number |
| --- | --- |
| Cc1cn(-c2cccc(C(F)(F)F)c2)c2ccc(C(=O)NS(C)(=O)=O)cc12 | 1.7 |

# logD of Cc1cn(-c2cccc(F)c2)c2ccc(C(=O)NS(=O)(=O)C3CC3)cc12 = 1.8

# logD of Cc1cn(-c2ccc(F)cc2)c2ccc(C(=O)NS(C)(=O)=O)cc12 = 1.1

###

- Test: Unbound fraction in mouse plasma
- Type: ADME, cell-free
Endpoint Name: fraction unbound
Enter a number only.

// solved cases for fraction unbound follow
| Structure As Smiles | fraction unbound |
| --- | --- |
| Cc1cn(-c2ccc(C(F)(F)F)nc2)c2ccc(C(=O)NS(=O)(=O)C3CC3)cc12 | 0.014 |
| Cc1cn(-c2cccc(C(F)(F)F)c2)c2cc(F)c(C(=O)NS(C)(=O)=O)cc12 | 0.004 |
| Cc1cn(-c2cncc(C(F)(F)F)c2)c2ccc(C(=O)NS(=O)(=O)C3CC3)cc12 | 0.005 |
| Cc1cn(-c2cncc(C(F)(F)F)c2)c2cc(F)c(C(=O)NS(=O)(=O)C3CC3)cc12 | 0.007 |

Kindly review the next compound as well.
# fraction unbound of Cc1cn(-c2cccc(C(F)(F)F)c2)c2ccc(C(=O)NS(C)(=O)=O)cc12 = 0.002

###

- Test: Tmax in ddY mouse at 1 mg/kg, po by LC-MS/MS analysis
- Assay type: ADME, organism-based
- Measurement Context: in vivo
List of Tmax values.
Could you give me the number in h? Just the number is fine.

// solved cases for Tmax follow
| Structure As Smiles | Number |
| --- | --- |
| Cc1cn(-c2cncc(C(F)(F)F)c2)c2ccc(C(=O)NS(=O)(=O)C3CC3)cc12 | 3.3 |
| Cc1cn(-c2cccc(F)c2)c2ccc(C(=O)NS(=O)(=O)C3CC3)cc12 | 1 |

Kindly review the next compound as well.
# Tmax of Cc1cn(-c2cncc(C(F)(F)F)c2)c2cc(F)c(C(=O)NS(=O)(=O)C3CC3)cc12 = 6

###

- Test: Bioavailability in ddY mouse at 1 mg/kg, iv by LC-MS/MS analysis
- Assay type: ADME, organism-based
- Measurement Context: in vivo
Endpoint Name: bioavailability (%)
Could you give me the number in %? Just the number is fine.

| Structure As Smiles | Unit Label | bioavailability |
| --- | --- | --- |
| Cc1cn(-c2cccc(F)c2)c2ccc(C(=O)NS(=O)(=O)C3CC3)cc12 | % | 65 |

# bioavailability of Cc1cn(-c2cncc(C(F)(F)F)c2)c2ccc(C(=O)NS(=O)(=O)C3CC3)cc12 = 117

###

- Target Or Test System: hERG (KCNH2) (Homo sapiens, UniProt Q12809)
- Sequence (Q12809 whole entry): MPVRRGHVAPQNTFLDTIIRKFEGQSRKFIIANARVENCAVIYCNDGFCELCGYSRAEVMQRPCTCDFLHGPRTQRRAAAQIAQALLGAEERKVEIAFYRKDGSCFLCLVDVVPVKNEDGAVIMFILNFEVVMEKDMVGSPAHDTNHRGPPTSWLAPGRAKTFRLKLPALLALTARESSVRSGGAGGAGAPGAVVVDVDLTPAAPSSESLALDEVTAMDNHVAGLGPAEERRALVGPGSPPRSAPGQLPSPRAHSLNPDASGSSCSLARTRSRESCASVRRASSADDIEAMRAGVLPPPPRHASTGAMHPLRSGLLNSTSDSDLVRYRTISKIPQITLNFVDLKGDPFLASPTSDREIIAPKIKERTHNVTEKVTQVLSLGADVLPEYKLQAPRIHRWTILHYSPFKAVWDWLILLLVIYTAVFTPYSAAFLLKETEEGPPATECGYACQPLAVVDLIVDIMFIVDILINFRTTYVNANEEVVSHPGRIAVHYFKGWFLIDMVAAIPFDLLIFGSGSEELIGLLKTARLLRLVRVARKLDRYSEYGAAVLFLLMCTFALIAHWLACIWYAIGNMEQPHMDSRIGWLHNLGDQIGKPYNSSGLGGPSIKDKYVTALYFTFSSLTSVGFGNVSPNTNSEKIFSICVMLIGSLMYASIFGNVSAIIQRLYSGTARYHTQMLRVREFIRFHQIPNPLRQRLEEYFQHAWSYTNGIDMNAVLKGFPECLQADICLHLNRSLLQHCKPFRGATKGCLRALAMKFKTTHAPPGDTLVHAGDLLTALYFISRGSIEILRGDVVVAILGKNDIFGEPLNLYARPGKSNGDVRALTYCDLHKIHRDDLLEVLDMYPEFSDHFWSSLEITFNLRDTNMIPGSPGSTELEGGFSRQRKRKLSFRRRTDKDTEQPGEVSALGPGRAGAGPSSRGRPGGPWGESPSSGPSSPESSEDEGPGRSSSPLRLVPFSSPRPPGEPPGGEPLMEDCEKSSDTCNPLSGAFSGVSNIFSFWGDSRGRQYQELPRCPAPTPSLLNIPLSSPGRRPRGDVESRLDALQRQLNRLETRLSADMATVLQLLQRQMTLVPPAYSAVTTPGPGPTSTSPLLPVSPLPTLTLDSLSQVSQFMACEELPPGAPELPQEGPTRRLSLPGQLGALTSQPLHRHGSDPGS
- Test: Inhibition of hERG at 100 uM
- Format: toxicity
Endpoint Name: inhibition at 100 µM (%)
Could you give me the number in %? Just the number is fine.

// solved cases for inhibition at 100 µM follow
| Structure As Smiles | inhibition at 100 µM [%] |
| --- | --- |
| Cc1cn(-c2cncc(Cl)c2)c2ccc(C(=O)NS(=O)(=O)C3CC3)cc12 | 34.1 |
| Cc1cn(-c2cccnc2)c2ccc(C(=O)NS(=O)(=O)C3CC3)cc12 | -8.8 |

# inhibition at 100 µM of Cc1cn(-c2cccc(F)c2)c2ccc(C(=O)NS(C)(=O)=O)cc12 = 13.2
